EXPERIMENT DESCRIPTION: in vitro
Format: cell-based
CONDITION SUMMARY: human, cem cells, CC50 (50% cytostatic concentration), Table 2B; CEM cell proliferation; averages of 2 to 3 independent experiments
Kindly supply the reported CC50 values for the records listed here.
One number for each entry, in µg/mL.

// below: answered compounds
[
  {
    "SAMPLE SMILES": "CC=CCOc1cc(NC(=O)C2=C(CC)OCCS2)ccc1Cl",
    "CC50 [µg/mL]": 11
  },
  {
    "SAMPLE SMILES": "CC1=C(C(=S)Nc2ccc(Cl)c(C=NOC(C)(C)C)c2)CCCO1",
    "CC50 [µg/mL]": 10
  },
  {
    "SAMPLE SMILES": "Cc1sccc1C(=O)Nc1ccc(Cl)c(OCC2CCCC2)c1",
    "CC50 [µg/mL]": 5
  },
  {
    "SAMPLE SMILES": "C=CCOc1cc(NC(=S)c2sccc2C)ccc1Cl",
    "CC50 [µg/mL]": 5.3
  },
  {
    "SAMPLE SMILES": "CC(C)OC(=O)c1cc(NC(=S)c2ccccc2N)ccc1Cl",
    "CC50 [µg/mL]": 6.7
  },
  {
    "SAMPLE SMILES": "CCC(CC)OC(=O)c1cc(NC(=O)c2ccccc2N)ccc1Cl",
    "CC50 [µg/mL]": 25
  }
]

For every item in the list below, what is its measured CC50?
1. Cc1occc1C(=S)Nc1ccc(Cl)c(SCC(=O)OC(C)(C)C)c1
2. CON=Cc1cc(NC(=S)c2ccoc2C)ccc1Cl
3. Cc1occc1C(=S)Nc1ccc(Cl)c(C(=O)OC2CCCC2)c1
4. CC1=C(C(=O)Nc2ccc(Cl)c(C=NOC(C)(C)C)c2)SCCO1
5. CC(C)=CCOc1cc(NC(=O)c2ccsc2C)ccc1Cl
6. CC(C)ON=Cc1cc(NC(=S)c2ccccc2)ccc1Cl

Output line:
1: 7; 2: 24; 3: 4.3; 4: 8.5; 5: 6; 6: 9

Just for reference, patent US5696151A is where these values come from.
